Target: T1, Bzz1-2, P38822
T1 sequence (P38822 568-633, looked up): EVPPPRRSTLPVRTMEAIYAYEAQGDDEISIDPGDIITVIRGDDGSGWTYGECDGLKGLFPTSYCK
Assay: SPOT array
Conditions: median of control spots 4538
property.measured: SPOT intensity

Measured SPOT intensity, VPPPMQPPPIESSNL : 0

a = GKKVRPLLVLLLSRA
b = NFKRLLPRDPSEKSS
Endpoint returns whichever of a and b has the numerically higher SPOT intensity. # respond with the chosen item's label
b
(b: 10, a: 0)

From: paper PMC2756588
